From: patent US20050147670A1

Assay: Bioavailability study of 25/250 mg orally disintegrating tablets in healthy adult volunteers, fasting
Format: in vivo
Conditions: human, oral, Mean ± SD, 25/250 mg ODT, 36 healthy adult volunteers, plasma, read-out: AUCinf_obs
Endpoint Label: AUC(0-inf) (ng·h/mL)

a: C[C@@](Cc1ccc(O)c(O)c1)(NN)C(=O)O
b: N[C@@H](Cc1ccc(O)c(O)c1)C(=O)O [Levodopa, monohydrate]
// select label with min value of measured AUC(0-inf) from [ a , b ] Refer to your chosen item by its label in the answer.
a
(a: 560 ng·h/mL, b: 4480 ng·h/mL)

---

Assay: Bioavailability study of 25/250 mg orally disintegrating tablets in healthy adult volunteers, fasting
Format: in vivo
Details: human, oral, Mean ± SD, 25/250 mg ODT, 36 healthy adult volunteers, plasma
Endpoint Label: Cmax (ng/mL)

a: C[C@@](Cc1ccc(O)c(O)c1)(NN)C(=O)O
b: N[C@@H](Cc1ccc(O)c(O)c1)C(=O)O [Levodopa, monohydrate]
Dear colleague, could you let me know whether a or b has the lower recorded Cmax? Thanks. Choose, then provide that item's label.
a
